- SYSTEM: αvβ3 integrin (Homo sapiens, UniProt P05106+P06756)
- Construct: The α5β1 and αvβ3 integrins were isolated from human placenta; from tissue; host or cells: human placenta
- Sequence (P06756 31-889 limits assumed): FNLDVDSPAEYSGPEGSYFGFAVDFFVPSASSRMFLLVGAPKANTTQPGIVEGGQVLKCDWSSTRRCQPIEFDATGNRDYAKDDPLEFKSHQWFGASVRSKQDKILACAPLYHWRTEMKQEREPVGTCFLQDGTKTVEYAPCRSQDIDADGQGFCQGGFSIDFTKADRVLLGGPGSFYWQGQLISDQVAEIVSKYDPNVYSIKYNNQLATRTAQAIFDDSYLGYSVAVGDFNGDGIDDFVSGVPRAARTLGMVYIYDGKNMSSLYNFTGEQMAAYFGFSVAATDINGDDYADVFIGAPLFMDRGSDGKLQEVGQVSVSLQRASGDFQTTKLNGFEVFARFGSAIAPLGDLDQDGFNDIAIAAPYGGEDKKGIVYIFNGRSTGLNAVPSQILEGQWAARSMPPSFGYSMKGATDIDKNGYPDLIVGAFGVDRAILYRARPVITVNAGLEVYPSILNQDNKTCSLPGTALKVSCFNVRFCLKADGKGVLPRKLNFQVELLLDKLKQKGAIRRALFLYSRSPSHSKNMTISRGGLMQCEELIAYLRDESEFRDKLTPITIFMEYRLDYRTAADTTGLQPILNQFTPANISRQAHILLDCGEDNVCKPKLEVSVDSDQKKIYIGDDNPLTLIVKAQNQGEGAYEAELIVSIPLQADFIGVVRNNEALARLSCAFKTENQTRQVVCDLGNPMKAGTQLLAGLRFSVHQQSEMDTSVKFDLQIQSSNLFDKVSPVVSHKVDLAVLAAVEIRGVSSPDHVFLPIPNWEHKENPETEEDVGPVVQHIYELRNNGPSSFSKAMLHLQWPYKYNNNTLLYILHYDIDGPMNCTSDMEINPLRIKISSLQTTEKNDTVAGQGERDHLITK
- Sequence (P06756 891-1048 limits assumed): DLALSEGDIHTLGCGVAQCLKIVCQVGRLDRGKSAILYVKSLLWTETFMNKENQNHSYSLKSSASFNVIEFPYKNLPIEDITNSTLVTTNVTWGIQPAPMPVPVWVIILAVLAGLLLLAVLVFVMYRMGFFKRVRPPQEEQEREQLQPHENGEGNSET
- Sequence (P05106 27-788): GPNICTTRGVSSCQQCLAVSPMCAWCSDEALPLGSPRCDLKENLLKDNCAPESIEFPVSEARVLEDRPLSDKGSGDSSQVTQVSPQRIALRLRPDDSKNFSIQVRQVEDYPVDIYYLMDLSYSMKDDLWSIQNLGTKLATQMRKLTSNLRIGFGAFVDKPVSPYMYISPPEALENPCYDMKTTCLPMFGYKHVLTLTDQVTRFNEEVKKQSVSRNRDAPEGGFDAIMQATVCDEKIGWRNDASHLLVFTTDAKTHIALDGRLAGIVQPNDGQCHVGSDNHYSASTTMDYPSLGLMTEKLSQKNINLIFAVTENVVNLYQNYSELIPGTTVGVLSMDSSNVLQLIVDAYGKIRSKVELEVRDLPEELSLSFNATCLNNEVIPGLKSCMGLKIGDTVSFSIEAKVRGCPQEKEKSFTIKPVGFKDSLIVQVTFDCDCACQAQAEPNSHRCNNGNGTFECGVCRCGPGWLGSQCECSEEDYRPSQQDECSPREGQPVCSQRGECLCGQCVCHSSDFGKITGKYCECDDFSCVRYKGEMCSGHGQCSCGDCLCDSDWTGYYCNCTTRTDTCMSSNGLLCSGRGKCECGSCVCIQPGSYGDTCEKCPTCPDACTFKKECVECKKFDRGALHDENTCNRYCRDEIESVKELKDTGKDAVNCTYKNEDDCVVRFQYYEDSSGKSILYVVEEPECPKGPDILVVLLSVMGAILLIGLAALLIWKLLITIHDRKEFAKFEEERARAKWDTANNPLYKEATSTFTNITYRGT
- ASSAY_DETAILS: inhibition of NGRAHA-phage binding to αvβ3
- CONDITION_SUMMARY: means from duplicate wells
Residues, ends and D or L forms follow the SMILES beside them.
ENDPOINT: IC50

Q: # return recorded IC50 for entry N=C(N)NCCC[C@H](NC(=O)CNC(=O)[C@H](CC(=O)O)NC(=O)[C@@H](N)CO)C(=O)O [SDGR, reference compound] (H-SDGR-OH)
Ans: > 100 µM

----------
- SYSTEM: α5β1 integrin (Homo sapiens, UniProt P05556+P08648)
- Construct: The α5β1 and αvβ3 integrins were isolated from human placenta; from tissue; host or cells: human placenta
- Sequence (P08648 42-894 limits assumed): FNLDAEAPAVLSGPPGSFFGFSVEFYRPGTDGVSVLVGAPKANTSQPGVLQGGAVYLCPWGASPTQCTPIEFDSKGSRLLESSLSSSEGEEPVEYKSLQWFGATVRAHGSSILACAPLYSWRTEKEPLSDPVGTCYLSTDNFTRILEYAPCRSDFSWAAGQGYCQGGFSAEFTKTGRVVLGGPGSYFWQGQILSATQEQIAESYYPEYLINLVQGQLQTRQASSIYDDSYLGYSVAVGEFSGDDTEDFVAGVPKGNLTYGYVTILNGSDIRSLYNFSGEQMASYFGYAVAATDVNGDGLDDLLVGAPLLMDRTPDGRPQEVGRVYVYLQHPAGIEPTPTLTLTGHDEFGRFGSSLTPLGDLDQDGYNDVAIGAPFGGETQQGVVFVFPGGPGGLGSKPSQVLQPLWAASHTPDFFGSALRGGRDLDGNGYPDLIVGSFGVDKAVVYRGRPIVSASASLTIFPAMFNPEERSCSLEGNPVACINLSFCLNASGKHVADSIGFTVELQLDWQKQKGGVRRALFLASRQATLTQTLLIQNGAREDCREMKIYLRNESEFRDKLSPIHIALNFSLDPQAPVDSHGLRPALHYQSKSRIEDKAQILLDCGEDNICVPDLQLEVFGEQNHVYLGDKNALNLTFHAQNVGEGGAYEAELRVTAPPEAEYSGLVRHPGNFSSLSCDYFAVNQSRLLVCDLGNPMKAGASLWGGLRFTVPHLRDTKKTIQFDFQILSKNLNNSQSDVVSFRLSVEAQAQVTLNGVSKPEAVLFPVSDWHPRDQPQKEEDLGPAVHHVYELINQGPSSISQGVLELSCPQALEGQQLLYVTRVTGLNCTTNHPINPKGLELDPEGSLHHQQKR
- Sequence (P08648 895-1049 limits assumed): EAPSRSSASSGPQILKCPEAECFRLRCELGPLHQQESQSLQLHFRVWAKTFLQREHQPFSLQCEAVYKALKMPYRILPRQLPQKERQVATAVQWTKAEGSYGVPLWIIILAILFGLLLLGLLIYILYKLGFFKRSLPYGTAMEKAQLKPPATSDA
- Sequence (P05556 21-798): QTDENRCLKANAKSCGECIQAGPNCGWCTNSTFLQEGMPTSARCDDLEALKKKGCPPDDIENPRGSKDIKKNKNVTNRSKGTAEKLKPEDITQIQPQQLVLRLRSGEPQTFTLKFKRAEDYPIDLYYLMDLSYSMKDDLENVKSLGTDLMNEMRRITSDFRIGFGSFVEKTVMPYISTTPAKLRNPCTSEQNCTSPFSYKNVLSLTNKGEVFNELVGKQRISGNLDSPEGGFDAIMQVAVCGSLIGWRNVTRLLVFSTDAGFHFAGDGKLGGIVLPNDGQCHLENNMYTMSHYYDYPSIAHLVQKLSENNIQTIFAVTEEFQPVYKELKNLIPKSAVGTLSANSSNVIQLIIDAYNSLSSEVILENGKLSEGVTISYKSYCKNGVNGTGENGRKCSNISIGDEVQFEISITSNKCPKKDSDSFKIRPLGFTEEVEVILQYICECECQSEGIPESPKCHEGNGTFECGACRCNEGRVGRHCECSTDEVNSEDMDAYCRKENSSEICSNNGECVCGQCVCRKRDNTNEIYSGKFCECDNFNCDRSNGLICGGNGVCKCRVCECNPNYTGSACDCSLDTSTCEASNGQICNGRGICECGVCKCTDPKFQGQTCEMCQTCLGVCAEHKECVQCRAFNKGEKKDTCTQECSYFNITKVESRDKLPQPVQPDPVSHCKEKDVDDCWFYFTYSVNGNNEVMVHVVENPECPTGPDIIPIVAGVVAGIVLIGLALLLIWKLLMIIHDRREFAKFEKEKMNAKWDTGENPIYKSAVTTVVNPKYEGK
- ASSAY_DETAILS: phage attachment assay: inhibition of CRGDCL-phage binding to α5β1 integrin
- CONDITION_SUMMARY: FIG. 1; CRGDCL-phage, α5β1; read-out: IC50 in the phage assay (unit inferred)
No end group written: not given here.
ENDPOINT: IC50 (µM)
Answers are plain numbers, in µM.

Q: Please report IC50 for the following substance: NGRAHA [NGRAHA]
Ans: 30

----------
- SYSTEM: αvβ3 integrin (Homo sapiens, UniProt P05106+P06756)
- Construct: The α5β1 and αvβ3 integrins were isolated from human placenta; from tissue; host or cells: human placenta
- ASSAY_DETAILS: inhibition of CRGDCL-phage binding to αvβ3
- CONDITION_SUMMARY: means from duplicate wells
No end group written: not given here.
ENDPOINT: pIC50
Answers are plain numbers, as −log10 of the molar value.

Q: Give the reported value of pIC50 for this record: NGRAHA [NGRAHA]
Ans: 3.70
